# Assay Summary: plasma hydrolysis of prodrug esters of (−) CPTA
# Assay type: in vitro ADME
# Condition Details: human plasma (heparinized, pooled), 37° C., 125 or 250 μM prodrug; read-out: Plasma T1/2
Parameter: half-life

Request: # lookup: half-life of C=C/C=C(\C=C)C(=O)NCCOC(=O)C(Oc1cccc(C(F)(F)F)c1)c1ccc(Cl)cc1 (stereo not shown)
Response: < 1 h
